These entries and their values trace back to patent US20020028809A1.

molecular target: α1β1γδ subtype of nicotinic acetylcholine receptors (Rattus norvegicus, UniProt P18916+P25108+P25109+P25110); construct: Native receptor, no construct: "Triton X100 (2% w/v) was added; experiment: Binding assays at α1β1γδ subtype of nicotinic acetylcholine receptors ([3H]-α-bungarotoxin, rat muscle extract)
Sequence (P25108 21-457): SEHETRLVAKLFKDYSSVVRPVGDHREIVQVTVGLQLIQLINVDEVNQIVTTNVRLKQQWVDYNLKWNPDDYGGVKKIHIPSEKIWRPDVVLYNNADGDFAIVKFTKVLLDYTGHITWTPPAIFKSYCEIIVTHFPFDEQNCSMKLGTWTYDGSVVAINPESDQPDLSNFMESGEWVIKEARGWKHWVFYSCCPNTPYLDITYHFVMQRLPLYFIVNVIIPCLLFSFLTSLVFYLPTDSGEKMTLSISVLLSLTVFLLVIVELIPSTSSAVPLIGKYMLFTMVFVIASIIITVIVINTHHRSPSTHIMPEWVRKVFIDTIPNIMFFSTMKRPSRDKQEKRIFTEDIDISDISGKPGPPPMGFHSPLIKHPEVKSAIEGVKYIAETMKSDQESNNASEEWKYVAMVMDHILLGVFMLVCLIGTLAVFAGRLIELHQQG
Sequence (P25110 22-517): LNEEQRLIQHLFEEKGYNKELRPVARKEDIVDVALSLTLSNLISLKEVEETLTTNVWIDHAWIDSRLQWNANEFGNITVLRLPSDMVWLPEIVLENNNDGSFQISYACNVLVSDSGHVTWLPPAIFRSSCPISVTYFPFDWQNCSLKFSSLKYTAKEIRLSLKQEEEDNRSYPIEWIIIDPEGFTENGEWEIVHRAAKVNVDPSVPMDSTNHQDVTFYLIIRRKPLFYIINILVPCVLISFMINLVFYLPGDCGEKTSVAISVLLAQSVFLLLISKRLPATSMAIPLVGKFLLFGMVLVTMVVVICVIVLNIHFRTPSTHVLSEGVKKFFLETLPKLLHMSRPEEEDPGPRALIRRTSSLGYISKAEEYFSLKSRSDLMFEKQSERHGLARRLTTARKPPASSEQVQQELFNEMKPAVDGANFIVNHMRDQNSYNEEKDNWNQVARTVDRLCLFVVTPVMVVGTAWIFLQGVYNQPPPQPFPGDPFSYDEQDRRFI
Sequence (P25109 24-501): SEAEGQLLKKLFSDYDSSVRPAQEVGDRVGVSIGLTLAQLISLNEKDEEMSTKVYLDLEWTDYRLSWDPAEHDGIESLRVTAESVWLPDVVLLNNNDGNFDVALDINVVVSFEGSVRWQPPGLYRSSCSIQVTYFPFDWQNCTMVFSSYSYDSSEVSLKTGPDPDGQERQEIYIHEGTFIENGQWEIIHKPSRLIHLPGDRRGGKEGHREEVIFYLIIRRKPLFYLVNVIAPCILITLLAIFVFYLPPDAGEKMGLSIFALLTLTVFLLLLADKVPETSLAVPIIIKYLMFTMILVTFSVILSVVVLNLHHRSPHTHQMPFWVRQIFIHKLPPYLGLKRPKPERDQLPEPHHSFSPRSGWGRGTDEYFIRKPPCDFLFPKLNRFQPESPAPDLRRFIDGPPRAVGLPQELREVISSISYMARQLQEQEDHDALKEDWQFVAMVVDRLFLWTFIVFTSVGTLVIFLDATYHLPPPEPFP
Returns: string. Value is Y if measured Ki is below 200 µM, and N if it is greater than or equal to it.

Examples with answers:
Compound: CC1CSC(=N)N1Cc1ccc(Cl)nc1 (stereo not shown)
Qualitative label: Y
--
Compound: N#Cc1ccc(Cn2ccsc2=N)cc1
Qualitative label: N
--
Compound: N=c1sccn1Cc1ccc([N+](=O)[O-])cc1
Qualitative label: Y

Task item: I wonder whether NC1=NCCCN1Cc1ccc(Cl)nc1 has Ki below 200 µM. Can you tell?
Reply: Y

Task item: In plain terms, does Cc1csc(=N)n1Cc1ccc(Cl)nc1 come in under 200 µM for Ki?
Reply: Y

Task item: For N=c1sccn1Cc1ccc(Cl)c(Cl)c1 , is the recorded Ki below the cut-off of 200 µM?
Reply: Y

Task item: Determine if Cc1csc(=N)n1Cc1cncc(Br)c1 shows Ki strictly lower than 200 µM.
Reply: Y

Task item: Lab note: Ki threshold 200 µM. Does this compound come in strictly under it? CN1CCCC1c1cccnc1 (single isomer, unassigned; (-)) [Nicotine, (−)-nicotine, reference compound]
Reply: Y

Task item: API: query returns whether the compound falls strictly under 200 µM in Ki. Query: Nc1nccn1Cc1cncnc1
Reply: N

Task item: Field: below-cutoff. Rule: recorded Ki strictly less than 200 µM. Subject: Cc1ccc(Cn2ccsc2=N)cc1
Reply: N

Task item: Please check: Ki for Cc1csc(=N)n1Cc1ccc(F)nc1 , strictly under 200 µM or not?
Reply: Y

Task item: Given Cc1csc(=N)n1Cc1cnc(Cl)c(Cl)c1 , is recorded Ki strictly lower than 200 µM?
Reply: Y

Task item: is_below(Ki, 200 µM) for Nc1nccn1Cc1c[nH]c2ncccc12 ?
Reply: N

Task item: Lab log: compare recorded Ki with 200 µM; is it strictly lower for N=c1ccccn1Cc1ccc(Cl)nc1 ?
Reply: Y

Task item: Consider N=C1SCC(c2ccccc2)N1Cc1ccc(Cl)nc1 (stereo not shown) . Does its Ki lie strictly below 200 µM?
Reply: Y

Task item: Confirm or reject: Ki of N=c1sccn1Cc1cccnc1 lies strictly below 200 µM
Reply: Y

Task item: Given N=c1ncccn1Cc1ccc(Cl)nc1 , is recorded Ki strictly lower than 200 µM?
Reply: N

Task item: Quick check: does Cc1ccc(Cn2c(C)csc2=N)cn1 have Ki under 200 µM?
Reply: Y

###

molecular target: α1β1γδ subtype of nicotinic acetylcholine receptors (Rattus norvegicus, UniProt P18916+P25108+P25109+P25110); construct: Native receptor, no construct: "Triton X100 (2% w/v) was added; assay: Binding assays at α1β1γδ subtype of nicotinic acetylcholine receptors ([3H]-α-bungarotoxin, rat muscle extract)
Listed here: items and their measured Ki.
Respond with the bare value in µM.

Given smiles: N=C1OCCN1Cc1ccc(Cl)nc1
Ki [µM]: 39.8

Given smiles: Cc1csc(=N)n1Cc1cnc(Cl)s1
Ki [µM]: 22.9

Given smiles: N=C1SCCN1Cc1ccc(Cl)nc1
Ki [µM]: 7.65

Given smiles: N=c1sccn1Cc1ccc(Cl)cc1
Ki [µM]: 13

Given smiles: N=c1sccn1Cc1cccc([N+](=O)[O-])c1
Ki [µM]: 219

Next up:
Task item: What measured Ki goes with N=c1sccn1Cc1ccc(Cl)nc1 ?
Reply: 10.2
